Where do these numbers come from? They come from patent US20230312709A1.

- targetEntity: T1, human CD47 on CCRF-CEM cells (human, UniProt Q08722 19-323)
- T1 construct: whole, on cells
- procedureDetails: flow cytometry on CCRF-CEM cells, MFI curve
A collection of binders and their measured pEC50
Note on pEC50: it is the negative log10 of concentration, concentration in mol/L.

Input: Look up pEC50: 7A11H15 (antibody, V domains shown, also called CD47 antibody) VH: QVQLVQPGAEVKKPGASVKLSCKASGSSFTSNWMNWVRQAPGQGLEWIGMIHPSDSETRLNQKFKDRATLTVDKSTSTAYMELSSPRSEDTAVYYCARGTTVVDAFAYWGQGTTVTVSS VL: EIVMTQSPPTLSLSPGERVTMSCKSSQSLLNSRTRKNYLAWYQQKPGQAPRLLIYWASTRESGIPARFSGSGSGTDFTLTISSLQPEDFAVYYCKQSYNLRTFGGGTKLEIK
Output: 9.14

Input: Look up pEC50: 7A11H11 (antibody, V domains shown, also called CD47 antibody) VH: QVQLVQPGAEVKKPGASVKLSCKASGSSFTSNWMNWVRQAPGQGLEWIGMIHPSDSETRLNQKFKDRATLTVDKSTSTAYMELSSPRSEDTAVYYCARGTTVVDAFAYWGQGTTVTVSS VL: DIVMTQSPDSLAVSLGERATMNCKSSQSLLNSRTRKNYLAWYQQKPGQPPKLLIYWASTRESGVPDRFSGSGSGTDFTLTISSLQAEDVAVYYCKQSYNLRTFGGGTKLEIK
Output: 9.09

Input: Look up pEC50: 7A11H52 (antibody, V domains shown, also called CD47 antibody) VH: QVQLVQSGAEVKKPGSSVKVSCKASGGTFTSNWMNWVRQAPGQGLEWIGMIHPSDSETRLNQKFQGRVTITADKSTSTAYMELSSLRSEDTAVYYCARGTTVVDAFAYWGQGTTVTVSS VL: DIQMTQSPSSLSASVGDRVTMTCKSSQSLLNSRTRKNYLAWYQQKPGKAPKLLIYWASTRESGVPSRFSGSGSGTDFTLTISSLQPEDFATYYCKQSYNLRTFGGGTKLEIK
Output: 9.04

Input: Look up pEC50: 7A11H35 (antibody, V domains shown, also called CD47 antibody) VH: QVQLVQSGAEVKKPGSSVKVSCKASGSSFTSNWMNWVRQAPGQGLEWIGMIHPSDSETRLNQKFKDRVTITADKSTSTAYMELSSLRSEDTAVYYCARGTTVVDAFAYWGQGTTVTVSS VL: EIVMTQSPPTLSLSPGERVTMSCKSSQSLLNSRTRKNYLAWYQQKPGQAPRLLIYWASTRESGIPARFSGSGSGTDFTLTISSLQPEDFAVYYCKQSYNLRTFGGGTKLEIK
Output: 9.06

Input: Look up pEC50: 7A11H34 (antibody, V domains shown, also called CD47 antibody) VH: QVQLVQSGAEVKKPGSSVKVSCKASGSSFTSNWMNWVRQAPGQGLEWIGMIHPSDSETRLNQKFKDRVTITADKSTSTAYMELSSLRSEDTAVYYCARGTTVVDAFAYWGQGTTVTVSS VL: DIVMTQSPDSLAVSLGERATMNCKSSQSLLNTRTRKNYLAWYQQKPGQPPKLLIYWASTRESGVPDRFSGSGSGTDFTLTISSLQAEDVAVYYCKQSYNLRTFGGGTKLEIK
Output: 8.92

Input: Look up pEC50: 7A11H33 (antibody, V domains shown, also called CD47 antibody) VH: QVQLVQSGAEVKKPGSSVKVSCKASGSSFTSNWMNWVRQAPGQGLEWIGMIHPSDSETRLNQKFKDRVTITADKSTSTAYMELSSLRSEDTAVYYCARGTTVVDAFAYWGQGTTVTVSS VL: DIQMTQSPSSLSASVGDRVTMTCKSSQSLLNTRTRKNYLAWYQQKPGKAPKLLIYWASTRESGVPSRFSGSGSGTDFTLTISSLQPEDFATYYCKQSYNLRTFGGGTKLEIK
Output: 9.12
